Entries and their Kd
Target: T1, GFP-9S library array, motif 4 ND D124P (synthetic construct, D124P)
T1 chain: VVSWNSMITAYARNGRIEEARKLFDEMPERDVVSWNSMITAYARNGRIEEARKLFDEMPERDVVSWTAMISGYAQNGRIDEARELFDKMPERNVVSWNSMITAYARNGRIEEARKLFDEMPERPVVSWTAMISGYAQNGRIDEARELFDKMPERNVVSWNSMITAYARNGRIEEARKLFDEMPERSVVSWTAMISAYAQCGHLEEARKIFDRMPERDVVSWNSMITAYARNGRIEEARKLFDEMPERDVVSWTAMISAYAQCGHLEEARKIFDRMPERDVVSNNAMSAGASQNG
Assay: high-throughput RNA pulldown from lysate on Ni-NTA beads; HRP: 50 mM Tris pH 8, 150 mM NaCl, 1 mM beta-mercaptoethanol, 50 ug/ml BSA, 3 ug/ml yeast RNA, 0.5% heparin; ITC and FP: Tris pH 8, 200 mM KCl, 5% glycerol; MST: 50 mM Tris pH 8, 200 mM NaCl, 1 mM DTT, BSA, heparin, 0.05% Tween 20
Settings: tags: N-terminal His-eGFP; label: 5' Cy5

{"binder": "AUUAGACGUGA (ssRNA) [Cy5-rpoA-G]", "Kd (nM)": 158}
{"binder": "AUUACACGUGA (ssRNA) [Cy5-rpoA]", "Kd (nM)": 123}

The reported numbers originate from paper PMC8809517.
